This collection of values is drawn from patent US20140221623A1.

Examples of binders with documented koff follow.
# target_or_system: T1, Human soluble IL6-R (human, UniProt P08887 20-358)
# T1 construct: Bought soluble receptor; biotinylated in some Alphascreen assays; also called sIL6-R; hIL-6R
# T1 sequence (looked up): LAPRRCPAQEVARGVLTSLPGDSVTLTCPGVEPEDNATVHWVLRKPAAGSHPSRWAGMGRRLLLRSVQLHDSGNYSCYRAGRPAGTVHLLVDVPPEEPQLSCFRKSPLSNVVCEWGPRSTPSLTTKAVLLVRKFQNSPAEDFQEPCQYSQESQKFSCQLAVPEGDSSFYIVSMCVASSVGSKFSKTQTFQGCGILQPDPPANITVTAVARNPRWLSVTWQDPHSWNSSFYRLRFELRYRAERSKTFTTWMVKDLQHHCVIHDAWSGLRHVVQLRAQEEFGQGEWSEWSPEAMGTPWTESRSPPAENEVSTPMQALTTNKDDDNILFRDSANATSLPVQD
# experimental_protocol: SPR (Biacore 3000), IL6-R on CM5 chip
measurement_kind: koff (s⁻¹)

INSERT INTO results (binder, result_units, result_value) VALUES
  ('IL6R01 (VHH, also called PMP28E11; PMP 28 E11) VHH: EVQLVESGGGFVQAGGSLRLSCIASGDNFSINRMGWYRQALGKQRELVAIITNHGSTNYADAVKGRFTISRDYAKNTVYLQMNGLKPDDTAVYYCNAYISEVGTWRDDYWGQGIQVTVSS', 's⁻¹', 0.00011),
  ('Reference Fab (Fab, V domains shown, Anti-human IL-6R Fab according to EP 0 628 639, made in E. coli periplasm; also called Tocilizumab-Fab) VH: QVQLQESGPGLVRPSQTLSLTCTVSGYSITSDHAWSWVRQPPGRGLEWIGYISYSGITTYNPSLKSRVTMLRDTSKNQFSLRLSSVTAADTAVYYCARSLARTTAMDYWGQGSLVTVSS VL: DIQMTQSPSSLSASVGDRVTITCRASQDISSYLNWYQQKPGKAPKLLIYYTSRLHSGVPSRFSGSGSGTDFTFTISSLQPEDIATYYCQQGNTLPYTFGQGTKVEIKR', 's⁻¹', 0.00066),
  ('IL6R08 (VHH, also called PMP34A12; PMP 34 A12) VHH: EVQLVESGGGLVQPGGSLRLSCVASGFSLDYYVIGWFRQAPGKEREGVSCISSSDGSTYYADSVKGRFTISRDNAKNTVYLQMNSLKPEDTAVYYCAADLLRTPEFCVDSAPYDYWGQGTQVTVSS', 's⁻¹', 0.00197),
  ('IL6R07 (VHH, also called PMP33A3; PMP 33 A3) VHH: EVQLVESGGGLVQPGGSLRLSCAASGFTLDYGAIGWFRQAPGKEREGVSCISSSTGSTYYADSVKGRFTISRDNGKNTVYLQMNSLKPEDTAVYYCAADKMWSPCLVAANEEALFEYDYWGQGTQVTVSS', 's⁻¹', 0.000242);
